Tested on: NOMO1
Test Name: cell viability relative to DMSO control; higher = less cytotoxic
Assay Conditions: RPMI 5 mM glucose + 10% dialyzed FBS; 48 h; 1.71 µM
Experimental Endpoint: cell viability (%)
The figure you give is taken to be in %; do not add the unit.

Example entries begin here.
Which cell viability is reported for this molecule? O=C1\C=C(OC2=C(C=CC=C12)C3=CC=CC4=C3SC5=C4C=CC=C5)\N6CCOCC6
136

Which cell viability is reported for this molecule? COc1cc(C[C@@H](CO)[C@H](CO)Cc2ccc(O)c(OC)c2)ccc1O
107

Which cell viability is reported for this molecule? Cc1ccc(C(=O)Nc2ccc([S+](=O)([O-])O)c3cc([S+](=O)([O-])O)cc([S+](=O)([O-])O)c23)cc1NC(=O)c1cccc(NC(=O)Nc2cccc(C(=O)Nc3cc(C(=O)Nc4ccc([S+](=O)([O-])O)c5cc([S+](=O)([O-])O)cc([S+](=O)([O-])O)c45)ccc3C)c2)c1
88.9

Which cell viability is reported for this molecule? NC(=O)N1CCC(CC(=O)N2CCC([C@H]3c4ncc(Br)cc4CCc4cc(Cl)cc(Br)c43)CC2)CC1
104

Next item in the queue.
Which cell viability is reported for this molecule? CC(C)(C)NCC(O)c1ccc(O)c(CO)c1 (stereo not given)
76.7

* * *

Test system: SEM cells
Test Name: cell viability relative to DMSO control; higher = less cytotoxic
Assay Conditions: RPMI 5 mM glucose + 10% dialyzed FBS; 48 h; 1.71 µM
Criterion: cell viability strictly under 50%. Met: Condition met. Not met: Condition not met.

Some solved cases for reference:
is_below(cell viability, 50%) for CN1CCN(c2ncc(-c3cc(Cl)cc(Cl)c3Cl)c(N)n2)CC1 ?
Condition not met

is_below(cell viability, 50%) for CCC(=O)N1CCN(CC1)C2=C(C=C(C=C2)N3C(=O)\C=C/C4=C3C5=CC(=CC=C5N=C4)C6=CN=C7C=CC=CC7=C6)C(F)(F)F ?
Condition not met

is_below(cell viability, 50%) for COc1cc2cc(c1Cl)N(C)C(=O)C[C@H](OC(=O)C(C)C)[C@]1(C)O[C@@H]1[C@H](C)[C@@H]1C[C@@](O)(NC(=O)O1)[C@H](OC)/C=C/C=C(\C)C2 ?
Condition met

is_below(cell viability, 50%) for CC1(C)CCC(C)(C)c2cc(NC(=O)c3ccc(C(=O)O)cc3)ccc21 ?
Condition not met

is_below(cell viability, 50%) for Cc1nnc(C(C)C)n1[C@@H]1C[C@H]2CC[C@@H](C1)N2CC[C@H](NC(=O)C1CCC(F)(F)CC1)c1ccccc1 ?
Condition not met

is_below(cell viability, 50%) for C[C@@H]1CC[C@@]2(CC[C@]3(C)\C(=C/C[C@@H]4[C@@]5(C)C[C@@H](O)[C@H](O)[C@@](C)(CO)[C@@H]5CC[C@@]34C)[C@@H]2[C@H]1C)C(O)=O ?
Condition met

More entries:
is_below(cell viability, 50%) for CC(C)[C@]12O[C@H]1[C@@H]3O[C@@]34[C@@]5(C)CC\C6=C(COC6=O)/[C@@H]5C[C@@H]7O[C@]47[C@@H]2O ?
Condition met

* * *

Tested on: P12-Ichikawa
Test Name: cell viability relative to DMSO control; higher = less cytotoxic
Assay Conditions: RPMI 5 mM glucose + 10% dialyzed FBS; 48 h; 0.00234 µM
Experimental Endpoint: cell viability (%)
The figure you give is taken to be in %; do not add the unit.

Which cell viability is reported for this compound? CN(C)CCc1c[nH]c2ccc(Cn3cncn3)cc12
89.5

Which cell viability is reported for this compound? CCC(=O)N1CCN(CC1)C2=C(C=C(C=C2)N3C(=O)\C=C/C4=C3C5=CC(=CC=C5N=C4)C6=CN=C7C=CC=CC7=C6)C(F)(F)F
98.3

Which cell viability is reported for this compound? NC(=O)c1nnn(Cc2cc(Cl)c(C(=O)c3ccc(Cl)cc3)c(Cl)c2)c1N
128

Which cell viability is reported for this compound? CC(=O)N(O)CCCCCNC(=O)CCC(=O)N(O)CCCCCNC(=O)CCC(=O)N(O)CCCCCN.C[S+](=O)([O-])O
108

Which cell viability is reported for this compound? CC1(C)[C@@H](O)CC[C@@]2(C)[C@H]1CC[C@]3(C)[C@@H]2C(=O)\C=C/4[C@@H]5C[C@](C)(CC[C@]5(C)CC[C@@]34C)C(O)=O
105

Which cell viability is reported for this compound? CC(C)[C@H]1C(=O)N[C@H](CO)Cc2c[nH]c3cccc(c23)N1C
99.7

Which cell viability is reported for this compound? CC[C@H](CO)Nc1nc(NCc2ccccc2)c2ncn(C(C)C)c2n1
94.4

Which cell viability is reported for this compound? CN1CCC(CNc2ccc3ncc(-c4cccc(OC(F)(F)F)c4)n3n2)CC1
92.9

Next item in the queue.
Which cell viability is reported for this compound? CC(O)(C[S+](=O)([O-])c1ccc(F)cc1)C(=O)Nc1ccc(C#N)c(C(F)(F)F)c1 (stereo not drawn)
85.5

* * *

Tested on: SEM cells
Test Name: cell viability relative to DMSO control; higher = less cytotoxic
Assay Conditions: RPMI 5 mM glucose + 10% dialyzed FBS; 48 h; 0.00234 µM
Experimental Endpoint: cell viability (%)
The figure you give is taken to be in %; do not add the unit.

Example entries begin here.
Which cell viability is reported for this compound? CNC(=O)c1nn(C)c2c1C(C)(C)Cc1cnc(Nc3ccc(N4CCN(C)CC4)cc3)nc1-2
101

Which cell viability is reported for this compound? O=C1\C=C(OC2=C(C=CC=C12)C3=CC=CC4=C3SC5=C4C=CC=C5)\N6CCOCC6
109

More entries:
Which cell viability is reported for this compound? CO[C@H]1C[C@@H]2CC[C@@H](C)[C@@](O)(O2)C(=O)C(=O)N2CCCC[C@H]2C(=O)O[C@H]([C@@H](C)C[C@@H]2CC[C@@H](O)[C@H](OC)C2)CC(=O)[C@H](C)/C=C(\C)[C@@H](O)[C@@H](OC)C(=O)[C@H](C)C[C@H](C)/C=C/C=C/C=C/1C
87.2

* * *

Tested on: SEM cells
Test Name: cell viability relative to DMSO control; higher = less cytotoxic
Assay Conditions: RPMI 5 mM glucose + 10% FBS; 48 h; 46.1 µM
Criterion: cell viability strictly under 80%. Met: y. Not met: n.

is_below(cell viability, 80%) for C/C=C(\C)C(=O)N[C@@H](c1ccccc1)[C@@H](O)C(=O)O[C@H]1C[C@@]2(O)[C@@H](OC(=O)c3ccccc3)[C@@H]3[C@]4(OC(C)=O)CO[C@@H]4C[C@H](O)[C@@]3(C)C(=O)[C@H](OC(C)=O)C(=C1C)C2(C)C ?
y

is_below(cell viability, 80%) for CCCC[S+](=N)([O-])CCC(N)C(=O)O (centres undefined) ?
n

is_below(cell viability, 80%) for CC(C)(C)[C@]1(O)C[C@@H]2OC(=O)C[C@@]23C(=O)O[C@@H]2OC(=O)[C@H](O)C213 (some centres undefined) ?
n

is_below(cell viability, 80%) for CCN(CC)CCCC(C)Nc1ccnc2cc(Cl)ccc12 (centres undefined) ?
n

is_below(cell viability, 80%) for CCN1\C=C(C(O)=O)/C(=O)C2=C1C(=C(N3CCNC(C)C3)C(=C2)F)F (centres undefined) ?
n

is_below(cell viability, 80%) for C#CCC(Cc1cnc2nc(N)nc(N)c2n1)c1ccc(C(=O)N[C@@H](CCC(=O)O)C(=O)O)cc1 (some centres undefined) ?
y

* * *

System: SEM cells
Test Name: cell viability relative to DMSO control; higher = less cytotoxic
Assay Conditions: RPMI 5 mM glucose + 10% dialyzed FBS; 48 h; 1.71 µM
# cell viability listing for each entry below
The figure you give is taken to be in %; do not add the unit.

Example entries begin here.
Which cell viability is reported for this molecule? COc1cccc(OC)c1-c1cc(C(=O)NC2(C(=O)O)C3CC4CC(C3)CC2C4)nn1-c1ccnc2cc(Cl)ccc12 (stereo not given)
102

Which cell viability is reported for this molecule? C[C@@H](Cc1cc2c(c(C(N)=O)c1)N(CCCO)CC2)NCCOc1ccccc1OCC(F)(F)F
142

Which cell viability is reported for this molecule? N#CC1(c2cccc(C(=O)Nc3cc(Oc4ccc5nc(NC(=O)C6CC6)sc5n4)ccc3F)c2Cl)CC1
83.2

Which cell viability is reported for this molecule? CC(=O)N(O)CCCCCNC(=O)CCC(=O)N(O)CCCCCNC(=O)CCC(=O)N(O)CCCCCN.C[S+](=O)([O-])O
20.2

More entries:
Which cell viability is reported for this molecule? COC1=CC=C(C=C1)C/2=C(OC3O[C@@H](C)[C@H](O)[C@@H](O)[C@H]3O)/C(=O)C4=C(O2)C(=C(OC5O[C@H](CO)[C@@H](O)[C@H](O)[C@H]5O)C=C4O)CC=C(C)C (stereo not given in full)
114

Which cell viability is reported for this molecule? CC(C)(Sc1cc(C(C)(C)C)c(O)c(C(C)(C)C)c1)Sc1cc(C(C)(C)C)c(O)c(C(C)(C)C)c1
89.3

Which cell viability is reported for this molecule? c1cc2c(cc1[C@H]1OC[C@H]3[C@@H]1CO[C@@H]3c1ccc3c(c1)OCO3)OCO2
132

Which cell viability is reported for this molecule? Clc1ccc(CCC(Cn2ccnc2)Sc2c(Cl)cccc2Cl)cc1 (stereo not given)
77.4
